B1: tRNA (parent)
chain: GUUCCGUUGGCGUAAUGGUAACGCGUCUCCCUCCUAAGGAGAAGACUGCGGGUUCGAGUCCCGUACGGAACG

Variants of: B1
measurement_description: yeast fitness relative to wild type (ratio to wild type); higher = fitter; tRNA-Arg(CCU), competitive growth, 37 C, YPD
Fewer inactive variants are shown than the library holds.
The variants listed here are annotated with their yeast fitness.

Would you please look over these solved cases?
U7A C55A A65C = ≤ 0.5
G6A C27U A45C U59C C62U = ≤ 0.5
G25C C31U U32A A70G = ≤ 0.5

Value of measured yeast fitness for the entry C4A U19G C30G : ≤ 0.5

Value of measured yeast fitness for the entry A20G A21U A70U : ≤ 0.5

Value of measured yeast fitness for the entry G12A U13C U16A U19G G23A G58A G68A : ≤ 0.5

Value of measured yeast fitness for the entry U7A C22A C31G U32G A42G G52A : ≤ 0.5

Value of measured yeast fitness for the entry C11U A14G A57G U59C A69U : ≤ 0.5

Value of measured yeast fitness for the entry A14U G23C C55G : ≤ 0.5

Value of measured yeast fitness for the entry A14G C55A A57U G58C A69U : ≤ 0.5

Value of measured yeast fitness for the entry G9C C22U U26C G58C G68U : ≤ 0.5
